format: physicochemical; conditions: pH 4.5, 40° C., 15 days
Where no end group is shown, it is not given here. [ ]: non-standard residue; d: D form. code ∗ = not defined here
This section presents substances with their documented 15 days Purity (%) values.
Give just the numeric value; % need not be written.

Some solved entries appear below for comparison.
>>> value_observed("HdAEGTFTTSDL SKQNleEEEAVR LFIEWLKQGG PSSGAPPPC(AM) [Sample 9-2]")
98.8
>>> value_observed("HdAEGTFTSDL SKQMEEEAVR LFIEWLVKGG PSSGAPPPK* (H[dA]EGTFTSDLSKQMEEEAVRLFIEWLVKGGPSSGAPPPK(code ∗); reading uncertain; also: C-terminal modification (*)) [Sample 11]")
94.8
>>> value_observed("HGEGTFTSDLSKQMEEEAVRLFIEWLKQGGPSSGAPPPK* [Sample 5]")
94.1
>>> value_observed("HdAEGTFTSDL SKQMEEEAVR LFIEWLKNGG PSSGAPPPC-NH2 [Sample 2-1]")
86.7
>>> value_observed("HdAEGTFTSDL SKQMEEEAVR LFIEWLKNGG PSSGAPPPC-PEG40K [Sample 4]")
99.0

Input: // lookup 15 days Purity (%) for HdAEGTFTTSDL SKQNleEEEAVR LFIEWLKQGG PSSGAPPPC-PEG40K [Sample 13]
Output: 99.5

Input: Which measured 15 days Purity (%) value corresponds to HdAEGTFTSDL SKQNleEEEAVR LFIEWLKQGG PSSGAPPPS-NH2 [Sample 3] ?
Output: 98.6
